Overview of reported viability, T/C across a group of molecules:
Test system: NCI-H1341 complex spheroids, percent test/control
Experiment: Anticancer human tumor NCI-H1341 cell line growth inhibition [AhR];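 further: spheroids exposed to agents for seven days before readout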
Details: second compound 3.16 µM; first compound 0.0316 µM; stronger effect = lower value

Worked cases, viability, T/C given:
CC1(C)CCC(CN2CCN(c3ccc(C(=O)NS(=O)(=O)c4ccc(NCC5CCOCC5)c([N+](=O)[O-])c4)c(Oc4cnc5[nH]ccc5c4)c3)CC2)=C(c2ccc(Cl)cc2)C1 + Cc1ccccc1N=Nc1ccc(NC(=O)c2ccnn2C)c(C)c1 = 80%
Nc1ccn(C2OC(CO)C(O)C2(F)F)c(=O)n1 (stereo not drawn) + CC(CO)NC(=O)c1cc(-c2ccc(Cl)cc2)nn(-c2cnn(C)c2)c1=O = 30.1%

Query (molecule): Nc1ncn(C2CC(O)C(CO)O2)c(=O)n1 (stereo not drawn) + Cc1cncc(-c2nc(NCCc3c[nH]c4ccccc34)c3ncn(C(C)C)c3n2)c1 ; field requested: viability, T/C
69.2%
